# experiment: chemical genetic growth profiling, strain panel (AID 1159580);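 note: tested at 20 µM; growth read once vehicle control cultures reached saturation at 30 °C; 1 = growth at the plate median or of vehicle wells; lower values mean less growth of the strain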
# testParameters: S. cerevisiae deletion strains, growth OD, locus YHR129C, strain ARP1, active compounds read low
Among all 5,500 compounds or so, about 2,000 (36%) were called active. Another 18% or so got no clear call; they are omitted. The list shows a part of the results.
measuredParameter: normalized growth
// no unit string in output, number only

Previously resolved entries follow.
molecule	observed
CC(=O)O[C@H]1C[C@@H](O)C(C)(C)C2C[C@@H](OC(C)=O)[C@]3(C)C(CC[C@@]4(C)[C@H](c5ccoc5)OC(=O)C5OC543)[C@]21C (stereo not given in full)	0.993
Nc1nc(N)c2nc(-c3ccccc3)c(N)nc2n1	0.993
O=C(O)c1nc2cc(Cl)c(Cl)cc2[nH]c1=O	1.01
CCC1C2CC3C4N(C)c5ccccc5C45CC(C2C5OC(C)=O)N3C1OC(C)=O (stereo not given)	1.02
O=c1[nH]c2cc(Cl)c(Cl)cc2[nH]c1=O	1.01

Q: normalized growth lookup needed for CC(=O)O[C@@H]1CC2C(C)(C)CCC(=O)[C@]2(C)C2CC[C@@]3(C)[C@H](c4ccoc4)OC(=O)C4OC43[C@@]21C (stereo not given in full) , thanks.
Ans: 0.997

Q: Then this molecule: CC(=O)O[C@H]1C[C@@]2(C)[C@H](c3ccoc3)OC(=O)[C@H]3O[C@]32[C@@]2(C)C1[C@]1(C)C(C[C@H]2OC(C)=O)C(C)(C)[C@H](OC(C)=O)C[C@@H]1OC(C)=O (stereo not given in full)
Ans: 0.995

Q: Then this molecule: COc1cccc2c1cc([N+](=O)[O-])c1c(C(=O)O)cc3c(c12)OCO3
Ans: 1.01

Q: Then this molecule: Clc1ccc(Cl)cc1
Ans: 1.01

Q: Then this molecule: C=C1C2CC[C@@]3(C)[C@H](c4ccoc4)OC(=O)C[C@]13O[C@H]1CC(=O)C(C)(C)[C@H](C(O)C(=O)OC)[C@@]21C (stereo not given in full)
Ans: 1

Q: Then this molecule: CC(=O)CC(c1ccccc1)c1c(O)c2ccccc2oc1=O (stereo not given)
Ans: 1

Q: Then this molecule: Cc1cc(=O)c2c(o1)-c1c(cc(O)c(O)c1C(=O)O)OC2
Ans: 1.01

Q: Then this molecule: COC(=O)C[C@H]1C(C)(C)C(=O)[C@@H]2CC3=C4CC(OC)O[C@@H](c5ccoc5)[C@]4(C)CCC3[C@@]1(C)C2=O (stereo not given in full)
Ans: 1.01

Q: Then this molecule: CC1(C)O[C@@H]2CC3C4C[C@H](F)C5=CC(=O)C=C[C@]5(C)[C@@]4(F)[C@@H](O)C[C@]3(C)[C@]2(C(=O)CO)O1 (stereo not given in full)
Ans: 0.997

Q: Then this molecule: C=CCc1ccccc1OCC(O)CNC(C)C (stereo not given)
Ans: 1.01
